B1: POU domain, class 4, transcription factor 1, residues 266 to 347; numbered along this chain, Q01851 (parent)
chain: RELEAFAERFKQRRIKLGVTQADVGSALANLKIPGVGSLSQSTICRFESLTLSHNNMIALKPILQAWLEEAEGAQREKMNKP

- Variants of: B1
- ASSAY COMMENT: abundance fitness (aPCA) (normalised: wild type 0, dead -1); higher = more abundant; growth selection in yeast, the domain comes from the species named
- STATED CONDITIONS: Homo sapiens
Binary call on abundance fitness: yes (1) from -0.1 upward, no (0) beneath that.

| VAR | LABEL CLASS |
| --- | --- |
| G18L | no (0) |
| T43N | no (0) |
| G73D | no (0) |
| S40G | yes (1) |
| E2S | no (0) |
| L64S | no (0) |
| E4F | yes (1) |
| K11W | no (0) |
| G25A | yes (1) |
| E69S | yes (1) |
| E8T | yes (1) |
| E72I | no (0) |
| Q12S | yes (1) |
| R9M | yes (1) |
| F10L | no (0) |
| Q12V | no (0) |
| G35L | no (0) |
| S53W | no (0) |
| P34I | no (0) |
| N56M | yes (1) |
| L17V | no (0) |
| Q41A | yes (1) |
| K16Y | no (0) |
| S53G | yes (1) |
| G25N | no (0) |
| N56D | yes (1) |
| E77C | yes (1) |
| A74H | yes (1) |
| E69C | no (0) |
| L3I | yes (1) |
| V36E | no (0) |
| L52Y | no (0) |
| A5F | yes (1) |
| R76C | yes (1) |
| P62K | no (0) |
| G37M | no (0) |
